Kindly state Absolute peak area, pHLS9 1 h [25 μM] for each of the entries shown.
# TEST_METHOD_NOTES: Incubations with pooled human liver S9 fraction (pHLS9), metabolite identification by LC-HRMS/MS
# Format: in vitro ADME
# CONDITION_LABEL: 25 μM 4F-MDMB-BINACA, 1 h incubation, one replicate of n = 2; n.d. = not detected
Respond with the number and no other words.

Ask: Query: Absolute peak area, pHLS9 1 h [25 μM]; subject: COC(=O)[C@@H](NC(=O)c1nn(CCCCO)c2ccccc12)C(C)(C)C
Reply: 4.27E+06

Ask: Query: Absolute peak area, pHLS9 1 h [25 μM]; subject: COC(=O)C(NC(=O)c1nn(CCCCF)c2ccccc12)C(C)(C)C (centres unmarked)
Reply: 9.37E+08

Ask: Query: Absolute peak area, pHLS9 1 h [25 μM]; subject: COC(=O)[C@@H](NC(=O)c1n[nH]c2ccccc12)C(C)(C)C
Reply: 5.62E+06

Ask: Query: Absolute peak area, pHLS9 1 h [25 μM]; subject: COC(=O)[C@@H](NC(=O)c1nn(CCCCF)c2ccccc12)C(C)(C)CO
Reply: 1.70E+05

Ask: Query: Absolute peak area, pHLS9 1 h [25 μM]; subject: CC(C)(C)[C@H](NC(=O)c1n[nH]c2ccccc12)C(=O)O
Reply: 9.07E+05

Ask: Query: Absolute peak area, pHLS9 1 h [25 μM]; subject: COC(=O)[C@@H](NC(=O)c1nn(CCCC(=O)O)c2ccccc12)C(C)(C)C
Reply: 2.16E+06

Ask: Query: Absolute peak area, pHLS9 1 h [25 μM]; subject: CC(C)(CO)C(NC(=O)c1nn(CCCCF)c2ccccc12)C(=O)O (centres unmarked)
Reply: 7.30E+03

Ask: Query: Absolute peak area, pHLS9 1 h [25 μM]; subject: CC(C)(C)C(NC(=O)c1nn(CCCCF)c2ccccc12)C(=O)O (centres unmarked)
Reply: 1.01E+08
